Measured relative viability by item
- Test system: NCI-H1355
- Assay Comment: relative viability (nuclei count vs DMSO), 5 days (fraction); higher = more cells survive
- Experimental Setup: first compound 0.01581 µM
Provide a numeric answer; units are not to be included.

Known relative viability results, listed for orientation:
Nc1ccn([C@@H]2O[C@H](CO)[C@@H](O)[C@@H]2O)c(=O)n1 [Cytarabine] + NC(=O)Nc1cc(-c2cccc(F)c2)sc1C(=O)N[C@H]1CCCNC1 [AZD7762] (partner 0.2 µM) : 0.455
COc1cc2nccc(Oc3ccc(NC(=O)Nc4cc(C)on4)c(Cl)c3)c2cc1OC [Tivozanib] + CS(=O)(=O)N1CCN(Cc2cc3nc(-c4cccc5[nH]ncc45)nc(N4CCOCC4)c3s2)CC1 [Pictilisib] (partner 1 µM) : 0.41
COc1cc2nccc(Oc3ccc(NC(=O)Nc4cc(C)on4)c(Cl)c3)c2cc1OC [Tivozanib] + CC(=O)c1c(C)c2cnc(Nc3ccc(N4CCNCC4)cn3)nc2n(C2CCCC2)c1=O [Palbociclib] (partner 0.5 µM) : 0.447

Kindly review the next molecule as well.
Ask: Tell me the measured relative viability of Nc1ccn([C@@H]2O[C@H](CO)[C@@H](O)[C@@H]2O)c(=O)n1 [Cytarabine] + CC(C)C[C@H](NC(=O)[C@H](Cc1ccccc1)NC(=O)c1cnccn1)B(O)O [Bortezomib] (partner 0.002 µM) , please.
Result: 1.18

====

- Tested on: PC-14
- Assay Comment: relative viability (nuclei count vs DMSO), 5 days (fraction); higher = more cells survive
- Experimental Setup: first compound 0.04 µM
Measured relative viability by item
Provide a numeric answer; units are not to be included.

Cc1sc2c(c1C)C(c1ccc(Cl)cc1)=N[C@@H](CC(=O)OC(C)(C)C)c1nnc(C)n1-2 [JQ1] + CC(=O)Nc1cccc(-n2c(=O)n(C3CC3)c(=O)c3c(Nc4ccc(I)cc4F)n(C)c(=O)c(C)c32)c1 [Trametinib] (partner 0.02 µM) : 0.862
Cc1sc2c(c1C)C(c1ccc(Cl)cc1)=N[C@@H](CC(=O)OC(C)(C)C)c1nnc(C)n1-2 [JQ1] + O=C(c1cc(Cc2n[nH]c(=O)c3ccccc23)ccc1F)N1CCN(C(=O)C2CC2)CC1 [Olaparib] (partner 8 µM) : 0.271
Cc1sc2c(c1C)C(c1ccc(Cl)cc1)=N[C@@H](CC(=O)OC(C)(C)C)c1nnc(C)n1-2 [JQ1] + Nc1ncn([C@H]2C[C@H](O)[C@@H](CO)O2)c(=O)n1 [Decitabine] (partner 2 µM) : 0.188

Ask: So what relative viability did Cc1sc2c(c1C)C(c1ccc(Cl)cc1)=N[C@@H](CC(=O)OC(C)(C)C)c1nnc(C)n1-2 [JQ1] + C[C@]1(O)C[C@@H](c2nc(-c3ccc4ccc(-c5ccccc5)nc4c3)c3c(N)nccn32)C1 [Linsitinib] (partner 1 µM) get with PC-14?
Result: 0.936

====

Measured relative viability by item
- Tested on: NCI-H1915
- Assay Comment: relative viability (nuclei count vs DMSO), 5 days (fraction); higher = more cells survive
- Experimental Setup: first compound 8 µM

O=c1[nH]c2ccccc2n1C1CCN(CCCC(c2ccc(F)cc2)c2ccc(F)cc2)CC1 [Pimozide] + Nc1nc2[nH]cc(CCc3ccc(C(=O)N[C@@H](CCC(=O)O)C(=O)O)cc3)c2c(=O)[nH]1 [Pemetrexed] (partner 0.2 µM) : 0.423

Ask: Tell me the measured relative viability of O=c1[nH]c2ccccc2n1C1CCN(CCCC(c2ccc(F)cc2)c2ccc(F)cc2)CC1 [Pimozide] + C[C@]1(O)C[C@@H](c2nc(-c3ccc4ccc(-c5ccccc5)nc4c3)c3c(N)nccn32)C1 [Linsitinib] (partner 1 µM) , please.
Result: 1.1

====

Measured relative viability by item
- Tested on: ABC-1
- Assay Comment: relative viability (nuclei count vs DMSO), 5 days (fraction); higher = more cells survive
- Experimental Setup: first compound 500 µM
Provide a numeric answer; units are not to be included.

Known relative viability results, listed for orientation:
O=C(O)CCCCC(CCSCc1ccccc1)SCc1ccccc1 (configuration not stated) [CPI-613] + Cc1cc(Nc2cc(N3CCN(C)CC3)nc(Sc3ccc(NC(=O)C4CC4)cc3)n2)n[nH]1 [Tozasertib] (partner 0.1 µM) : 0.207
O=C(O)CCCCC(CCSCc1ccccc1)SCc1ccccc1 (configuration not stated) [CPI-613] + C[C@]1(O)C[C@@H](c2nc(-c3ccc4ccc(-c5ccccc5)nc4c3)c3c(N)nccn32)C1 [Linsitinib] (partner 1 µM) : 0.169
O=C(O)CCCCC(CCSCc1ccccc1)SCc1ccccc1 (configuration not stated) [CPI-613] + CC(C)C[C@H](NC(=O)[C@H](Cc1ccccc1)NC(=O)c1cnccn1)B(O)O [Bortezomib] (partner 0.002 µM) : 0.242

Ask: Tell me the measured relative viability of O=C(O)CCCCC(CCSCc1ccccc1)SCc1ccccc1 (configuration not stated) [CPI-613] + O=C(c1cc(Cc2n[nH]c(=O)c3ccccc23)ccc1F)N1CCN(C(=O)C2CC2)CC1 [Olaparib] (partner 8 µM) , please.
Result: 0.383

Ask: Moving on to the next compound: O=C(O)CCCCC(CCSCc1ccccc1)SCc1ccccc1 (configuration not stated) [CPI-613] + CS(=O)(=O)CCNCc1ccc(-c2ccc3ncnc(Nc4ccc(OCc5cccc(F)c5)c(Cl)c4)c3c2)o1 [Lapatinib] (partner 2 µM)
Result: 1.57

Ask: Moving on to the next compound: O=C(O)CCCCC(CCSCc1ccccc1)SCc1ccccc1 (configuration not stated) [CPI-613] + CS(=O)(=O)N1CCN(Cc2cc3nc(-c4cccc5[nH]ncc45)nc(N4CCOCC4)c3s2)CC1 [Pictilisib] (partner 1 µM)
Result: 0.246

Ask: Moving on to the next compound: O=C(O)CCCCC(CCSCc1ccccc1)SCc1ccccc1 (configuration not stated) [CPI-613] + CC(=O)c1c(C)c2cnc(Nc3ccc(N4CCNCC4)cn3)nc2n(C2CCCC2)c1=O [Palbociclib] (partner 0.5 µM)
Result: 0.4

====

- Tested on: LCLC-97TM1
- Assay Comment: relative viability (nuclei count vs DMSO), 5 days (fraction); higher = more cells survive
- Experimental Setup: first compound 0.05 µM
Measured Attribute: relative viability
Provide a numeric answer; units are not to be included.

Known relative viability results, listed for orientation:
COc1cc2nccc(Oc3ccc(NC(=O)Nc4cc(C)on4)c(Cl)c3)c2cc1OC [Tivozanib] + N=C(N)NC(=N)NCCc1ccccc1 [Phenformin] (partner 250 µM) : 0.417
COc1cc2nccc(Oc3ccc(NC(=O)Nc4cc(C)on4)c(Cl)c3)c2cc1OC [Tivozanib] + COc1cccc2cc(-c3nc([C@H]4CC[C@H](C(=O)O)CC4)n4ncnc(N)c34)[nH]c12 [OSI-027] (partner 0.5 µM) : 0.636
COc1cc2nccc(Oc3ccc(NC(=O)Nc4cc(C)on4)c(Cl)c3)c2cc1OC [Tivozanib] + CC(=O)c1c(C)c2cnc(Nc3ccc(N4CCNCC4)cn3)nc2n(C2CCCC2)c1=O [Palbociclib] (partner 0.5 µM) : 0.193

Ask: Tell me the measured relative viability of COc1cc2nccc(Oc3ccc(NC(=O)Nc4cc(C)on4)c(Cl)c3)c2cc1OC [Tivozanib] + CCNC(=O)c1noc(-c2cc(C(C)C)c(O)cc2O)c1-c1ccc(CN2CCOCC2)cc1 [Luminespib] (partner 0.01 µM) , please.
Result: 0.716

Ask: Moving on to the next compound: Nc1ccn([C@@H]2O[C@H](CO)[C@@H](O)[C@@H]2O)c(=O)n1 [Cytarabine] + N=C(N)NC(=N)NCCc1ccccc1 [Phenformin] (partner 250 µM)
Result: 0.354

====

Measured relative viability by item
- Tested on: NCI-H2228
- Assay Comment: relative viability (nuclei count vs DMSO), 5 days (fraction); higher = more cells survive
- Experimental Setup: first compound 0.02 µM
Provide a numeric answer; units are not to be included.

Ask: So what relative viability did CC(=O)O[C@@]12CO[C@@H]1C[C@H](O)[C@@]1(C)C(=O)[C@H](O)C3=C(C)[C@@H](OC(=O)[C@H](O)[C@@H](NC(=O)OC(C)(C)C)c4ccccc4)C[C@@](O)([C@@H](OC(=O)c4ccccc4)[C@H]21)C3(C)C [Docetaxel] + CS(=O)(=O)CCNCc1ccc(-c2ccc3ncnc(Nc4ccc(OCc5cccc(F)c5)c(Cl)c4)c3c2)o1 [Lapatinib] (partner 2 µM) get with NCI-H2228?
Result: 0.16

Ask: Moving on to the next compound: CC(=O)O[C@@]12CO[C@@H]1C[C@H](O)[C@@]1(C)C(=O)[C@H](O)C3=C(C)[C@@H](OC(=O)[C@H](O)[C@@H](NC(=O)OC(C)(C)C)c4ccccc4)C[C@@](O)([C@@H](OC(=O)c4ccccc4)[C@H]21)C3(C)C [Docetaxel] + Nc1nc2[nH]cc(CCc3ccc(C(=O)N[C@@H](CCC(=O)O)C(=O)O)cc3)c2c(=O)[nH]1 [Pemetrexed] (partner 0.2 µM)
Result: 0.11
